assay: HCT116 colon cancer cell growth inhibition, primary screen, CellTiter-Glo luminescence, NPC library (AID 1117342); conditions: at 20 µM (top of the series)
Starred links: 1 amine or outer side, 2 acyl side, 3 side chain; linkers in the order of their positions; H or OH if unused. Positions of bridges follow the written chain, without caps; N, C: chain ends. Non-standard residues stand in square brackets, D forms with d. Residues, ends and D or L forms follow the SMILES beside them. ξ: configuration not given here. *: point of attachment. ΔAla(3-NHCONH2) = NC(=O)NC=C(N)C(=O)O; X1 = NC1=NCCC(C(N[*:1])C(=O)[*:2])N1; ξβ3hOrn = NCCCC(N)CC(=O)*; Dap = NC[CH](N)C(=O)O
measurement-type: inhibition of viability (%)
Give bare numbers, in %.

Completed entries (count: 3):
Cc1ccc(-c2ccccc2C#N)cc1 :: -1.3
O=C(O)C1CSC(C(=O)O)N1 (stereo not drawn) :: 2.5
NNCCc1ccccc1 :: 5.1

Give one value of inhibition of viability per listed compound.
1. Cc1cc(C)c(NC(=O)CN(CC(=O)O)CC(=O)O)c(C)c1Br
2. NC(=O)C[C@H](N)C(=O)O
3. CC(C)NCC(O)c1cc(O)cc(O)c1 (stereo not drawn)
4. C[C@]12CCC(=O)C=C1CC[C@@H]1[C@@H]2C(=O)C[C@@]2(C)[C@H]1CC[C@]2(O)C(=O)CO
5. CCCCC(CC)COC(=O)c1ccc(N(C)C)cc1 (stereo not drawn)
6. C[C@H]1C[C@@H]2[C@H]([C@@H](O)C[C@@]3(C)[C@H]2CC[C@]3(O)C(=O)CO)[C@@]2(C)C=CC(=O)C=C12
7. O=C(Oc1ccccc1)c1ccccc1O

13.3
0.3
-11.2
4.4
18
2.5
9.1

Give one value of inhibition of viability per listed compound.
1. Cc1ccc(O)c(-n2nc3ccccc3n2)c1
2. CCCCCCCCCCOCC(O)CN (stereo not drawn)
3. NCCCC(N)CC(=O)NCC1NC(=O)C(CO)NC(=O)C(N)CNC(=O)C(C2CCN=C(N)N2)NC(=O)C(=CNC(N)=O)NC1=O (stereo not drawn) (H-[Dap]S[Dap](ξβ3hOrn)[ΔAla(3-NHCONH2)][X1]; lactam 1-C; configuration not given here)
4. CC(C)(C)CC(=O)OCC(=O)[C@@]1(O)CC[C@H]2[C@@H]3CCC4=CC(=O)C=C[C@]4(C)[C@H]3[C@@H](O)C[C@@]21C
5. CC(C)(C)NC[C@H](O)COc1nsnc1N1CCOCC1
6. CCc1nnc(NS(=O)(=O)c2ccc(N)cc2)s1
7. C#CC(C)(CC)OC(=O)c1ccccc1C(=O)O (stereo not drawn)
8. Cc1ccc(C)c(OCCCC(C)(C)C(=O)O)c1

-0.8
84.7
-22.2
20.7
-6.3
-13.8
5.2
-1.9

Give one value of inhibition of viability per listed compound.
1. Cc1cc(NS(=O)(=O)c2ccc(N)cc2)nc(C)n1
2. NC(=O)NS(=O)(=O)c1ccc(Cl)cc1
3. CC1=C(/C=C/C(C)=C/C=C/C(C)=C/C(=O)O)C(C)(C)CCC1
4. OC(C#CCN1CCCC1)(c1ccccc1)c1ccccc1
5. C[C@@H](O)[C@H]1C(=O)N2C(C(=O)O)=C(S[C@@H]3CN[C@H](CNS(N)(=O)=O)C3)[C@H](C)[C@H]12

[-10.6, 2.5, 102, 21.4, 25.7]
